Value source: ChEMBL document CHEMBL1152299

assay: Half life in C57 mouse at 1 mg/kg, iv; assay type: ADME, organism-based; design: dose 1 mg/kg, route intravenous; settings: in vivo
Please respond with reported half-life for every item in the list.
Give bare numbers, in h.

• FC(F)(F)c1cccc2c(-c3ccccc3)n(Cc3ccccc3)nc12 = 1.9

Next up:
Need half-life, item `Fc1ccc(-c2c3cccc(C(F)(F)F)c3nn2Cc2ccccc2F)cc1`
7.9

----------
biological target: Oxysterols receptor LXR-alpha (Homo sapiens, UniProt Q13133)
Endpoint: pIC50
Answers are plain numbers, as −log10 of the molar value.

Some solved cases for reference:
- Fc1ccc(-c2c3cccc(C(F)(F)F)c3nn2Cc2ccccc2F)cc1: 6.61
- Fc1ccc(-c2c3cccc(C(F)(F)F)c3nn2Cc2ccc(F)cc2Cl)cc1: 6.75

Next up:
Need pIC50, item `O=C(O)Cc1ccc(CNc2cccc(-c3c(Cc4ccccc4)cnc4c(C(F)(F)F)cccc34)c2)cc1`
8.10

----------
Measurement record for Oxysterols receptor LXR-alpha (Homo sapiens); quantity recorded: pEC50.
Numbers only, as −log10 of the molar value.

Provide pEC50 for all items below, preserving their order.
1. Fc1ccc(-c2c3cccc(C(F)(F)F)c3nn2Cc2ccc(F)cc2Cl)cc1
2. O=C(O)Cc1cccc(OCCCN(Cc2cccc(C(F)(F)F)c2Cl)CC(c2ccccc2)c2ccccc2)c1
3. Fc1ccc(-c2c3cccc(C(F)(F)F)c3nn2Cc2ccccc2F)cc1

1: 5.18; 2: 6.18; 3: 5.21

----------
assay: Clearance in C57 mouse at 1 mg/kg, iv and 10 mg/kg, po; format: ADME, organism-based; conditions: in vivo
Endpoint: clearance (mL/min/kg)
One number for each entry, in mL/min/kg.

• FC(F)(F)c1cccc2c(-c3ccccc3)n(Cc3ccccc3)nc12 = 81

Next up:
Need clearance, item `Fc1ccc(-c2c3cccc(C(F)(F)F)c3nn2Cc2ccccc2F)cc1`
57

----------
test: Terminal half life in C57 mouse at 10 mg/kg, po; assay type: ADME, organism-based; parameters: dose 10 mg/kg, route oral; details: in vivo, read-out: beta t1/2 (converted)
Please respond with reported half-life for every item in the list.
One number for each entry, in h.

* FC(F)(F)c1cccc2c(-c3ccccc3)n(Cc3ccccc3)nc12 | 2.2

Next up:
Need half-life, item `Fc1ccc(-c2c3cccc(C(F)(F)F)c3nn2Cc2ccccc2F)cc1`
5.8

----------
tested on: THP-1; assay: Effect on ABCA1 gene expression in human differentiated THP1 cells relative to TO901317; type: functional
Please respond with reported Efficacy for every item in the list.
Answers are plain numbers, in %.

- O=S(=O)(c1ccccc1)N(CC(F)(F)F)c1ccc(C(O)(C(F)(F)F)C(F)(F)F)cc1 [T091317]: 100

Provide Efficacy for all items below, preserving their order.
1. O=C(O)Cc1ccc(COc2cccc(-c3c(Cc4ccccc4)cnc4c(C(F)(F)F)cccc34)c2)cc1
2. O=C(O)Cc1cccc(OCCCN(Cc2cccc(C(F)(F)F)c2Cl)CC(c2ccccc2)c2ccccc2)c1
3. Fc1ccc(-c2c3cccc(C(F)(F)F)c3nn2Cc2ccccc2F)cc1
4. Fc1ccc(-c2c3cccc(C(F)(F)F)c3nn2Cc2ccc(F)cc2Cl)cc1 [LXR-623]

1. 155
2. 178
3. 89
4. 100

----------
system: HepG2; assay: Effect on triglyceride accumulation in human HepG2 cells relative to TO901317; type: functional
Criterion: Efficacy strictly less than 40%. Met: True. Not met: False.

Solved cases below.
- Fc1ccc(-c2c3cccc(C(F)(F)F)c3nn2Cc2ccccc2F)cc1: True
- O=C(O)Cc1ccc(COc2cccc(-c3c(Cc4ccccc4)cnc4c(C(F)(F)F)cccc34)c2)cc1: False
- O=S(=O)(c1ccccc1)N(CC(F)(F)F)c1ccc(C(O)(C(F)(F)F)C(F)(F)F)cc1: False
- O=C(O)Cc1cccc(OCCCN(Cc2cccc(C(F)(F)F)c2Cl)CC(c2ccccc2)c2ccccc2)c1: False

hey, is Efficacy for `Fc1ccc(-c2c3cccc(C(F)(F)F)c3nn2Cc2ccc(F)cc2Cl)cc1` lower than 40% or not?
True
